Task for the reader: assign each of the following molecules its reported GI50.
# Test system: IGROV-1
# EXPERIMENTAL PROTOCOL: NCI tumour cell line growth inhibition, 48 h
Calls of active or inactive are those of the source. Rule as the data show it: active = GI50 up to about 1.1 µM and inactive = higher.

[
  {
    "MOLECULE": "CC[C@@]1(C[C@H]2C[C@@]3(C(=O)OC)c4[nH]c5ccccc5c4CCN3C2=S)COC2(CCCCC2)O1",
    "GI50": "61.7 µM (inactive)"
  },
  {
    "MOLECULE": "COC(=O)CC1C(COC(C)=O)OC(n2cc(C)c(=O)[nH]c2=O)C1OC(C)=O (stereo unspecified)",
    "GI50": "> 100 µM (inactive)"
  }
]

Here are 5 molecules. What values of GI50 were reported for them?
1. Oc1cc(-c2ccccc2)nc2cc3c(cc12)OCO3
2. CCN(CC)CCNc1ccc(/N=N/c2ccc(S(N)(=O)=O)cc2)c2ccccc12
3. COC(=O)Cc1ccc2c(cnn2-c2ccccc2)c1OC
4. CC(=O)OC1(C#N)CC2OC1C1C2N1C(=O)OC(C)(C)C (stereo unspecified)
5. CC(C)CCn1nc(N)c2nc3ccccc3nc21

Response:
1. 13.6 µM (inactive)
2. 13.1 µM (inactive)
3. > 10 µM (inactive)
4. > 100 µM (inactive)
5. > 100 µM (inactive)

====

# Test system: CAKI-1
# EXPERIMENTAL PROTOCOL: NCI tumour cell line growth inhibition, 48 h
The source made the active and inactive calls. Cut-off read from the data, not from the text of the source: active = GI50 up to about 1.1 µM and inactive = higher.
EXPERIMENTAL ENDPOINT: GI50

Answered examples (6):
[
  {
    "COMPOUND": "COc1nc(NC2OC(COC(C)=O)C(OC(C)=O)C(OC(C)=O)C2OC(C)=O)c(/N=C(\\C)C(C)=O)c(=O)n1C (stereo not drawn)",
    "SYSTEM NAME": "CAKI-1",
    "GI50": "> 100 µM (inactive)"
  },
  {
    "COMPOUND": "C(=N\\Cc1ccccc1)/c1ccccc1-c1ccccc1/C=N/Cc1ccccc1",
    "SYSTEM NAME": "CAKI-1",
    "GI50": "> 10 µM (inactive)"
  },
  {
    "COMPOUND": "Clc1ccc(C(OCn2ccnc2)c2nc3ccccc3[nH]2)c(Cl)c1 (stereo not drawn)",
    "SYSTEM NAME": "CAKI-1",
    "GI50": "87.3 µM (inactive)"
  },
  {
    "COMPOUND": "CCC1CC2CN3CCc4c([nH]c5c(-c6c(OC)ccc7c8c([nH]c67)[C@]6(C(=O)OC)CC7CC(CC)C6N(CC8)C7)c(O)ccc45)[C@](C(=O)OC)(C2)C13 (stereo partly drawn)",
    "SYSTEM NAME": "CAKI-1",
    "GI50": "12.6 µM (inactive)"
  },
  {
    "COMPOUND": "CC1=CC(C2/C(=N/O)C=C(C)CC2(C)C)C(O)C(C)(C)C1 (stereo not drawn)",
    "SYSTEM NAME": "CAKI-1",
    "GI50": "15 µM (inactive)"
  },
  {
    "COMPOUND": "C#Cc1cc(CN(CC(=O)OC(C)(C)C)CC(=O)OC(C)(C)C)nc(CN(CC(=O)OC(C)(C)C)CC(=O)OC(C)(C)C)c1",
    "SYSTEM NAME": "CAKI-1",
    "GI50": "10 µM (inactive)"
  }
]

Here are 2 compounds. What values of GI50 were reported for them?
1. C/C(=N\NC(N)=S)c1ccc2c(c1)OCO2
2. CC(=O)OC[C@@]1(C)[C@@H]2[C@@H]3[C@@]4(CO[C@]3(C)C(=O)[C@@]3(O)C[C@H](C)[C@H](OC(C)=O)[C@@H]3[C@H]4OC(C)=O)[C@H](OC(=O)c3ccccc3)C[C@@H]21

Response:
1. > 100 µM (inactive)
2. > 100 µM (inactive)

====

# System: HCT-116
# EXPERIMENTAL PROTOCOL: NCI tumour cell line growth inhibition, 48 h
Active and inactive are the calls of the source. Rule as the data show it: active = GI50 up to about 1.1 µM and inactive = higher.
EXPERIMENTAL ENDPOINT: GI50

Here are 2 compounds. What values of GI50 were reported for them?
1. Cn1c(=O)[nH]c2sc3c(c2c1=N)CCCC3
2. Cc1ccc(NC(=O)CC2C(=O)Nc3ccccc3S2(=O)=O)c(C)c1 (stereo not given)

Response:
1. > 75 µM (inactive)
2. 12.2 µM (inactive)

Here are 3 compounds. What values of GI50 were reported for them?
1. CCCCCCCCCCCC[C@@H](O)[C@H]1CC[C@H]([C@H]2CC[C@H]([C@H](O)CC[C@H](O)CCCCCCCC3=C[C@H](C)OC3=O)O2)O1
2. C=C1CN(Cc2ccccc2)[C@@H]2CCCCC[C@H](C#N)[C@H]12
3. N#CC12C(=O)NC(=O)C1(C#N)C1C=CC2CC1 (stereo not given)

Response:
1: 1.23 µM (inactive); 2: > 72.4 µM (inactive); 3: > 100 µM (inactive)

Here are 3 compounds. What values of GI50 were reported for them?
1. CSc1c(C(=O)Nc2ccccc2)c(N)n(N)c(=O)c1C#N
2. Cc1cc2c(c3c1c1ccccc1n3C)C(=O)c1ccccc1C2=O
3. CCOC(=O)C12C3CCC1C2C(=O)C3 (stereo not given)

Response:
["> 100 µM (inactive)", "> 100 µM (inactive)", "> 100 µM (inactive)"]

Here are 2 compounds. What values of GI50 were reported for them?
1. Oc1c(Cl)c(Cl)c(O)c(CCNc2ccc3ncccc3c2)c1Cl
2. COC(=O)Cc1ccc2c(cnn2-c2ccccc2)c1OC

Response:
["14.5 µM (inactive)", "> 10 µM (inactive)"]

====

# Tested on: U-251
# EXPERIMENTAL PROTOCOL: NCI tumour cell line growth inhibition, 48 h
The source made the active and inactive calls. Cut-off read from the data, not from the text of the source: active = GI50 up to about 1.1 µM and inactive = higher.
Task for the reader: assign each of the following compounds its reported GI50.

Answered examples (4):
[
  {
    "COMPOUND": "CCCCCCC(C)c1ccc2c(c1)C(=O)c1nc3ccncc3c(=O)n1-2 (stereo not given)",
    "RESULT": "4.26 µM (inactive)"
  },
  {
    "COMPOUND": "CCN(CC)CCN1C(=O)C(=O)N(c2cccc3ccccc23)C1=O",
    "RESULT": "> 10 µM (inactive)"
  },
  {
    "COMPOUND": "CC(SC(=O)Nc1ccc(/N=N/c2ccccc2)cc1)C(=O)O (stereo not given)",
    "RESULT": "> 100 µM (inactive)"
  },
  {
    "COMPOUND": "COC(=O)C1=C(C(=O)OC)C2(C3C(SC)=CC(C)(C)CC3S1)N(Cc1ccccc1)CCN2Cc1ccccc1 (stereo not given)",
    "RESULT": "> 100 µM (inactive)"
  }
]

Query: For U-251, give GI50 of the listed compound: COc1nc(NC2OC(COC(C)=O)C(OC(C)=O)C(OC(C)=O)C2OC(C)=O)c(/N=C(\C)C(C)=O)c(=O)n1C (stereo not given)
Response: > 100 µM (inactive)

====

Task for the reader: assign each of the following compounds its reported GI50.
# System: SW-620
# EXPERIMENTAL PROTOCOL: NCI tumour cell line growth inhibition, 48 h
The source made the active and inactive calls. Rule as the data show it: active = GI50 up to about 1.1 µM and inactive = higher.

[
  {
    "COMPOUND": "C[N+]1(C)CCCC1C(=O)[O-] (stereo not drawn)",
    "SYSTEM NAME": "SW-620",
    "EXPERIMENTAL ENDPOINT": "GI50",
    "RESULT": "> 100 µM (inactive)"
  },
  {
    "COMPOUND": "COC(=O)Cc1ccc2c(cnn2-c2ccccc2)c1OC",
    "SYSTEM NAME": "SW-620",
    "EXPERIMENTAL ENDPOINT": "GI50",
    "RESULT": "> 10 µM (inactive)"
  }
]

Here are 8 compounds. What values of GI50 were reported for them?
1. CCOC(=O)Cc1csc(N/C=C2/C(=O)Oc3ccccc3C2=O)n1
2. N=C(N)NCCCC(NC(=O)OCCCCCCn1ccc(N)nc1=O)C(=O)O (stereo not drawn)
3. CN(C)c1ccc(/C=N/NC(=S)Nc2ccccc2)cc1
4. CCCCN(CCCC)c1ccc(/N=N/c2ccc(S(=O)(=O)O)cc2)cc1
5. Nc1ncnc2sc(Nc3ccccc3)nc12
6. COC[C@@H](C[C@H]1O[C@@](O)([C@H](O)[C@@H]2C[C@H](OC)[C@@H](O)CC/C=C(C)/C=C/[C@@H](O[C@@H]3O[C@@H](C)[C@H](OC)[C@@H](O)[C@@H]3O)[C@H](C)/C=C(C)/C=C(C)/C=C(\C)C(=O)O2)[C@H](C)[C@@H](O)[C@H]1C)O[C@H]1C[C@](C)(O)[C@@H](O[C@H]2C[C@@H](OC)[C@H](O)[C@@H](C)O2)C(C)O1 (stereo partly drawn)
7. CC(C)(C)c1ccc2c(c1)C#Cc1cc(C(C)(C)C)ccc1OCCCO2
8. CC1(C)C2CC(=O)C1(C)C(O)C2Br (stereo not drawn)

Response:
1. 21.6 µM (inactive)
2. > 100 µM (inactive)
3. > 100 µM (inactive)
4. 33 µM (inactive)
5. > 100 µM (inactive)
6. > 85.7 µM (inactive)
7. > 100 µM (inactive)
8. > 100 µM (inactive)
